Experiment: NCI Yeast Anticancer Drug Screen. Data for the mlh1 rad18 strain (AID 175)
Conditions: S. cerevisiae mlh1 rad18 strain growth inhibition; at 50.0 µM
About 79,000 compounds went through this panel and 15% of them were active in at least one assay; those are over-represented in the sample as a whole. The source made the active and inactive calls. Cut-off read from the data, not from the text of the source: active = growth inhibition above about 70%; inactive = the rest.
Outcome codes: Y = active, N = inactive

compound: C=CCOCCC(=O)OCC=C
discrete-label: Y
//
compound: C=C(C)COc1cc(NC(=S)OC(C)C)ccc1Cl
discrete-label: Y
//
compound: CC(C)c1cc2c(cc1O)C(O)C1(O)CCCC(C)(C)[C@H]1CC2 (some centres undefined)
discrete-label: Y
//
compound: CN(C)c1ccc(C(c2ccc(N(C)C)cc2)c2cccc([N+](=O)[O-])c2)cc1
discrete-label: N
//
compound: Nc1ccccc1C(=O)/C=C/c1ccccc1
discrete-label: Y
//
compound: O=C(O)/C=C/c1ccc(Cl)cc1Cl
discrete-label: Y
//
compound: NC(Cc1ccccc1)c1ccc2cccc3c2c1CC3 (centres undefined)
discrete-label: N
//
compound: CCCCCCC[CH2][Sn]([CH2]CCCCCCC)([O]c1cccc2cccnc12)[O]c1cccc2cccnc12
discrete-label: Y
//
compound: CCCCCCCCCCCCCCCC[n+]1ccc(/C=C/c2ccccc2)cc1
discrete-label: Y
//
compound: Cc1c2cc[n+]([O-])cc2c(C)c2c1oc1ccccc12
discrete-label: N
//
compound: O=C(O)/C=C/C(=O)NNc1nc2ccccc2s1
discrete-label: Y
//
compound: O=c1c2ccccc2sc2cccc(NCCCN3CCN(CCCNc4cccc5sc6ccccc6c(=O)c45)CC3)c12
discrete-label: N
//
compound: O=C(CCCN1CCC2(CC1)CC(c1ccccc1)OC2=O)c1ccc(F)cc1 (centres undefined)
discrete-label: Y
//
compound: O=[N+]([O-])c1cc(Br)cc(Br)c1O
discrete-label: N
//
compound: CC(C)OC(=O)C1C=CCc2c(O)ccc(O)c21 (centres undefined)
discrete-label: Y
//
compound: NN(c1ccccc1)c1cccc2ccccc12
discrete-label: N
//
compound: OC(c1cc(-c2ccccc2)nc2cc(Cl)ccc12)C1CCCCN1 (centres undefined)
discrete-label: N
//
compound: Oc1ccc(Br)cc1C=Nc1c(NC2CCCCC2)oc2ccc(Br)cc12
discrete-label: N
//
compound: Clc1ccc(CN2CCN(Cc3ccc(Cl)cc3)C2c2ccc(Cl)cc2)cc1
discrete-label: N
//
compound: CC(C)(CC#N)c1cc(CC(C)(C)c2cc(CC(C)(C)c3cc(CC(C)(C)C4(C)OCCO4)no3)no2)no1
discrete-label: N
//
compound: CCCCCCC(O)CCOC(C)=O (centres undefined)
discrete-label: N
//
compound: CCCCCCCCCCN1CCN(C(=O)OCC)CC1
discrete-label: Y
//
compound: Cc1ccc(Nc2nc(C)c(C(=O)C/C(=N\NC(N)=S)C(=O)Nc3ccc(Cl)cc3C)s2)cc1
discrete-label: N
//
compound: CCC(c1ccc(O)cc1)C(CC)c1ccc(OCC(N)=O)cc1 (centres undefined)
discrete-label: Y

###

Test: NCI Yeast Anticancer Drug Screen. Data for the mlh1 rad18 strain (AID 175)
Conditions: S. cerevisiae mlh1 rad18 strain growth inhibition; at 50.0 µM (retest, dose inferred, filed as 5.0); hits give high values
About 79,000 compounds went through this panel and 15% of them were active in at least one assay; those are over-represented in the sample as a whole.
Each record gets a class by growth inhibition: c1 = under 30%, c2 = from 30% up to 90%, c3 = 90% and over

compound: Cc1ccc2[nH]c3c(c2c1)[n+]([O-])c1ccccc1[n+]3[O-]
discrete-label: c1

compound: O=C(O)c1ccc2c(c1)CCCC2
discrete-label: c1

compound: S=C(Nc1ccc(Cl)c(Cl)c1)SC1CCCCC1
discrete-label: c3

compound: COc1ccc(C2COc3c(ccc(O)c3O)C2)cc1 (stereo not drawn)
discrete-label: c3

compound: Oc1ccc2ccccc2c1.[Cu+2]
discrete-label: c2

compound: C#CC(C)(C)OC(C)=O
discrete-label: c1

compound: O=c1c2ccccc2sc2cccc(NCCCN3CCN(CCCNc4cccc5sc6ccccc6c(=O)c45)CC3)c12
discrete-label: c1

compound: CCOC(=O)c1ccc2c(c1)Cc1cc([N+](=O)[O-])ccc1-2
discrete-label: c2

compound: CCCCN(CCCC)C(=O)c1ccc(Cl)cc1Cl
discrete-label: c3

compound: N#CC1=C(C#N)Sc2nc3cc(Cl)ccc3nc2S1
discrete-label: c3

compound: O=C(CCCSCCCC(=O)NNc1ccccc1)NNc1ccccc1
discrete-label: c3

compound: Cc1ccc2nc(N/N=C/c3cccc(C)n3)cc(C)c2c1
discrete-label: c2

compound: CCCCCCCCCCCCS(=O)(=O)CC(Br)C(=O)c1ccco1 (stereo not drawn)
discrete-label: c3

compound: COc1ccc(-c2nnc(C)nc2-c2ccc(OC)cc2)cc1
discrete-label: c1

compound: O=c1oc2c3ccc4ccccc4c3n(CCCN3CCCCC3)c2c2ccccc12
discrete-label: c1

compound: N#CC(Nc1cccc(C(F)(F)F)c1)c1ccccc1C(F)(F)F (stereo not drawn)
discrete-label: c3

compound: CC(=O)N(C)NC(=O)c1ccccc1
discrete-label: c1

compound: CC(C)CCCC(=O)CCCCCCC(=O)CCN(O)C(=O)C(N)CO (stereo not drawn)
discrete-label: c3
